# credit: patent US20250171542A1

assay_target: human PD-L1 expressed on cell surface (human, UniProt Q9NZQ7 19-290)
Sequence (Q9NZQ7 19-290 limits assumed): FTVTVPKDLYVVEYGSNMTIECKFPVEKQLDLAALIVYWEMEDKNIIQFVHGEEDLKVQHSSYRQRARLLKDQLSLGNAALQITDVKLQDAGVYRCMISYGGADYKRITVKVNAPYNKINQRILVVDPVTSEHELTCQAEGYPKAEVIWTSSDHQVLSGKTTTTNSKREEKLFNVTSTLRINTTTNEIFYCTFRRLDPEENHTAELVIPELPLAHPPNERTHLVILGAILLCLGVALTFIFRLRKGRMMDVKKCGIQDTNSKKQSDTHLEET
assay_remarks: cell-based or functional assay
measured_attribute: Internalization (%), FACS, 2 µg/ml, 2 h

For the binder 56H3 (antibody, human IgG1, V domains shown) VH: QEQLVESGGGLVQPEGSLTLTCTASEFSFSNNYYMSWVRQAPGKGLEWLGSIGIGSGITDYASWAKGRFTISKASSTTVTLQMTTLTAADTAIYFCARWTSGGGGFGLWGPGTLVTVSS VL: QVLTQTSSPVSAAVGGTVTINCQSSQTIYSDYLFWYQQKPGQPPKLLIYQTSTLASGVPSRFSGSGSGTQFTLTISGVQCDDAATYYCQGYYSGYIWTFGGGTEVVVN , report Internalization (%), FACS, 2 µg/ml, 2 h.
6.5%

For the binder 56E5 (antibody, human IgG1, V domains shown) VH: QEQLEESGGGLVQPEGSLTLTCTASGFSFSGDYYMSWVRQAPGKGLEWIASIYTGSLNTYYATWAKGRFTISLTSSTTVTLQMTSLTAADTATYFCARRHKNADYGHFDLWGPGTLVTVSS VL: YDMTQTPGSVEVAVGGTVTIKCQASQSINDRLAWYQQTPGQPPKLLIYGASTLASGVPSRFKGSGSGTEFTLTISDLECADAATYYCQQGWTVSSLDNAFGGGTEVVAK , report Internalization (%), FACS, 2 µg/ml, 2 h.
24.7%

For the binder 69D10 (antibody, human IgG1, V domains shown) VH: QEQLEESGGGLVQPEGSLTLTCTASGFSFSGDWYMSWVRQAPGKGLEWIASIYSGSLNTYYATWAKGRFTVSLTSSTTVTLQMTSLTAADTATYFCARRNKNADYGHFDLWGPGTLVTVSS VL: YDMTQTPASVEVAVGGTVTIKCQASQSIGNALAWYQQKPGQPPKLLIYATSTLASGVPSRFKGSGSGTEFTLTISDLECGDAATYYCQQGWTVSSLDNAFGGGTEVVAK , report Internalization (%), FACS, 2 µg/ml, 2 h.
17.7%

For the binder 27A2 (antibody, human IgG1, V domains shown) VH: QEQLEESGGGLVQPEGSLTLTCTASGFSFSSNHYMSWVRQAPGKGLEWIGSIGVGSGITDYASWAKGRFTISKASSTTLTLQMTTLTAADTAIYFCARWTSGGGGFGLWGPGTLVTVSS VL: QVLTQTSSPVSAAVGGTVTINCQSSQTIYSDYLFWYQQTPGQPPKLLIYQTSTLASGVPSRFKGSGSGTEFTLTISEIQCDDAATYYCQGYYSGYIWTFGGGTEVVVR , report Internalization (%), FACS, 2 µg/ml, 2 h.
12.7%

For the binder 33E8 (antibody, human IgG1, V domains shown) VH: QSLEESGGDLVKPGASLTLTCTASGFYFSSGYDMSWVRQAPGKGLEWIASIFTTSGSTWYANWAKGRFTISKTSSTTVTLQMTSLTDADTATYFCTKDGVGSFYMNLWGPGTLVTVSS VL: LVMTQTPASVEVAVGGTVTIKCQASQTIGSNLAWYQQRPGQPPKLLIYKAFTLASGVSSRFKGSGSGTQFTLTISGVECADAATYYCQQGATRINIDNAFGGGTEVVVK , report Internalization (%), FACS, 2 µg/ml, 2 h.
29.6%

For the binder 33H7 (antibody, human IgG1, V domains shown) VH: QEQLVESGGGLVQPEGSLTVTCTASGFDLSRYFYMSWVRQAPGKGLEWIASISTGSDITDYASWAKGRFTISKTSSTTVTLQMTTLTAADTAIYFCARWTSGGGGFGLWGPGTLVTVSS VL: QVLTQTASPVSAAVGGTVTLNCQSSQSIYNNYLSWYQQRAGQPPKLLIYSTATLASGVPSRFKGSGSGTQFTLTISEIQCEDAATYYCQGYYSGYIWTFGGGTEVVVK , report Internalization (%), FACS, 2 µg/ml, 2 h.
17.8%

For the binder 32E2 (antibody, human IgG1, V domains shown) VH: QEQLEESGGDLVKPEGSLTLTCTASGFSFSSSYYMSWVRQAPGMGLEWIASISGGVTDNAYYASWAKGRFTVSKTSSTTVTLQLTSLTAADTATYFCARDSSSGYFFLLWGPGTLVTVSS VL: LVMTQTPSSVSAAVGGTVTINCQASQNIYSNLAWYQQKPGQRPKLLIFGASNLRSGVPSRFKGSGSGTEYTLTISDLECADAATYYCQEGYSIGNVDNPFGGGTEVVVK , report Internalization (%), FACS, 2 µg/ml, 2 h.
2.4%

For the binder 74A9 (antibody, human IgG1, V domains shown) VH: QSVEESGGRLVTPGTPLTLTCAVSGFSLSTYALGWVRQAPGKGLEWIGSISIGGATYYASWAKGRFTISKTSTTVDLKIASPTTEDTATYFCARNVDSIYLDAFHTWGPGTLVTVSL VL: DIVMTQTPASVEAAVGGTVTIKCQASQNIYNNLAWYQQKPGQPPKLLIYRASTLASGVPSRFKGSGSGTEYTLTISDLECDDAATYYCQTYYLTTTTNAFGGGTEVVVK , report Internalization (%), FACS, 2 µg/ml, 2 h.
13.9%

For the binder 73C8 (antibody, human IgG1, V domains shown) VH: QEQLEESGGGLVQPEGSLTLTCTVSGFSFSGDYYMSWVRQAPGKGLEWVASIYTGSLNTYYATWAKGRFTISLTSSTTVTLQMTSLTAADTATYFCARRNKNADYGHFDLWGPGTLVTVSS VL: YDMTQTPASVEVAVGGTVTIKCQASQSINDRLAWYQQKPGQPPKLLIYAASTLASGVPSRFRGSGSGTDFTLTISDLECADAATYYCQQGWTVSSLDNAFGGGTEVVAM , report Internalization (%), FACS, 2 µg/ml, 2 h.
22.5%

For the binder 62E6 (antibody, human IgG1, V domains shown) VH: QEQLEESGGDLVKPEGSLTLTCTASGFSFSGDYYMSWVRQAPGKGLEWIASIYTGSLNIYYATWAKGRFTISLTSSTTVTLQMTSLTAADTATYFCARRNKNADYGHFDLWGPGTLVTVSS VL: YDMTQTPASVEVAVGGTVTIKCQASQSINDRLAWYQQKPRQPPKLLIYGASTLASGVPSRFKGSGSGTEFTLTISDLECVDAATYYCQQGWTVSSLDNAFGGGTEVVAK , report Internalization (%), FACS, 2 µg/ml, 2 h.
16.1%
